System: P. falciparum stage V female gametocytes (female gamete formation)
EXPERIMENT DESCRIPTION: P. falciparum dual gamete formation assay (Pf DGFA), female readout (Pfs25 expression), 48 h carry-over format
Format: cell-based, Plasmodium falciparum NF54
RUN CONDITIONS: Plasmodium falciparum; primary screen, 2 uM, 48 h incubation, single replicate
Experimental: P. falciparum NF54 strain (originally isolated from an imported malaria case in the Netherlands in the 1980s; BEI Resources, cat. no. MRA-1000) asexual and sexual stages culture was performed as previously described. Gametocyte cultures were initiated at 1% asexual ring stage parasitaemia and 4% haematocrit in 40 ml final volume. […] On day 14 after culture induction, gametocyte production was assessed by thin smear and Giemsa staining, and exflagellation accurately counted in a haemocytometer. […]
MEASURE NAME: inhibition at 2 µM

Exam item: For P. falciparum stage V female gametocytes (female gamete formation), provide inhibition at 2 µM of O=S(=O)(NCC1(O)CCOc2ccccc21)c1ccccc1Br (stereo not shown) please.
Marked response: < 30%

Exam item: For P. falciparum stage V female gametocytes (female gamete formation), provide inhibition at 2 µM of OC1(CN2CCC(Oc3cccc(C(F)(F)F)c3)CC2)CCNC1 (stereo not shown) please.
Marked response: < 30%

Exam item: For P. falciparum stage V female gametocytes (female gamete formation), provide inhibition at 2 µM of Cc1cccnc1CN1CC[C@H](Oc2cccc(F)c2)[C@@](C)(O)C1 please.
Marked response: 32.8%

Exam item: For P. falciparum stage V female gametocytes (female gamete formation), provide inhibition at 2 µM of CCOc1ccc2ccccc2c1CNCC1CCNCC1.Cl.Cl please.
Marked response: < 30%

Exam item: For P. falciparum stage V female gametocytes (female gamete formation), provide inhibition at 2 µM of CC(C)CN1CCn2nc(CNc3ncnc4[nH]ccc34)cc2C1 please.
Marked response: < 30%

Exam item: For P. falciparum stage V female gametocytes (female gamete formation), provide inhibition at 2 µM of Cc1ccc(S(=O)(=O)NCC2(O)CCOc3ccccc32)s1 (stereo not shown) please.
Marked response: < 30%

Exam item: For P. falciparum stage V female gametocytes (female gamete formation), provide inhibition at 2 µM of Cc1nn(C)c(Oc2ccc(Cl)cc2)c1CN1CCC(CN)C1 (stereo not shown) please.
Marked response: < 30%

Exam item: For P. falciparum stage V female gametocytes (female gamete formation), provide inhibition at 2 µM of NCC1CCN(C2CCN(c3ccc(-c4ccco4)cc3)CC2)C1 (stereo not shown) please.
Marked response: 64%

Exam item: For P. falciparum stage V female gametocytes (female gamete formation), provide inhibition at 2 µM of CC(NCC1CCN(CCO)CC1)c1ccc(C(F)(F)F)cc1 (stereo not shown) please.
Marked response: < 30%

Exam item: For P. falciparum stage V female gametocytes (female gamete formation), provide inhibition at 2 µM of CC(NCC1CCN(CCO)CC1)c1ccc(OC(F)(F)F)cc1 (stereo not shown) please.
Marked response: < 30%

====

So I've got a bunch of compounds here, and I need their pIC50 values.
System: P. falciparum stage V male gametocytes (male gamete formation)
EXPERIMENT DESCRIPTION: P. falciparum dual gamete formation assay (Pf DGFA), male readout (exflagellation), 48 h carry-over format
Format: cell-based, Plasmodium falciparum NF54
RUN CONDITIONS: Plasmodium falciparum, SAR, Fig. 6 and Fig. 7; read-out: Male IC50
Reminder that pIC50 means the negative base-10 logarithm of the concentration expressed in mol/L.

Exam item: Give its pIC50 value. Item: N#Cc1ccccc1NC(=O)CCl
Marked response: 5.28

Exam item: Give its pIC50 value. Item: COc1cccc(NC(=O)CCl)c1
Marked response: 5.66

Exam item: Give its pIC50 value. Item: Cc1ccc(NC(=O)CCl)cc1
Marked response: 5.47

Exam item: Give its pIC50 value. Item: Cc1ccc(S(=O)(=O)NCC2(O)CCOc3ccccc32)s1 (stereo not shown)
Marked response: 6.21

Exam item: Give its pIC50 value. Item: O=C(CCl)Nc1ccc(Cl)cc1Cl
Marked response: 5.39

Exam item: Give its pIC50 value. Item: Cc1ccccc1NC(=O)CCl
Marked response: 4.98

Exam item: Give its pIC50 value. Item: O=S(=O)(NCC1(O)CCOc2ccccc21)c1ccc(Br)s1 (stereo not shown)
Marked response: 6.72

Exam item: Give its pIC50 value. Item: Cc1cccc(NC(=O)CCl)c1
Marked response: 5.35

Exam item: Give its pIC50 value. Item: O=C(CCl)Nc1ccc(O)cc1
Marked response: 5.71

Exam item: Give its pIC50 value. Item: O=C(CCl)Nc1ccccc1Cl
Marked response: 4.95
